Test system: PANC-1 complex spheroid growth, percent test/control
Assay: Anticancer human tumor PANC-1 cell line growth inhibition [Asc];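 note: spheroids exposed to agents for 7 days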
Settings: second compound 0.00949 µM; first compound 0.316 µM; hits give low values
One threshold, 90%, splits the recorded viability, T/C values: lower ones are T, equal or higher ones are F.

O=C(c1ccc(F)c(F)c1Nc1ccc(I)cc1F)N1CC(O)([C@@H]2CCCCN2)C1 + CCN1C(C(=O)NC23CCC(C(=O)O)(CC2)CC3)C(c2cccc(Cl)c2F)C2(C(=O)Nc3cc(Cl)ccc32)C12CCCCC2 : F
COc1c(OCCCN2CCOCC2)ccc2c3n(c(=NC(=O)c4cnc(N)nc4)nc12)CCN3 + CCN1C(C(=O)NC23CCC(C(=O)O)(CC2)CC3)C(c2cccc(Cl)c2F)C2(C(=O)Nc3cc(Cl)ccc32)C12CCCCC2 : T
O=C(c1cc(Cc2n[nH]c(=O)c3ccccc23)ccc1F)N1CCN(C(=O)C2CC2)CC1 + CCN1C(C(=O)NC23CCC(C(=O)O)(CC2)CC3)C(c2cccc(Cl)c2F)C2(C(=O)Nc3cc(Cl)ccc32)C12CCCCC2 : F
CCN1CCN(Cc2ccc(Nc3ncc(F)c(-c4cc(F)c5nc(C)n(C(C)C)c5c4)n3)nc2)CC1 + CCN1C(C(=O)NC23CCC(C(=O)O)(CC2)CC3)C(c2cccc(Cl)c2F)C2(C(=O)Nc3cc(Cl)ccc32)C12CCCCC2 : F
C=CC(=O)N1CCN(c2nc(=O)n(-c3c(C)ccnc3C(C)C)c3nc(-c4c(O)cccc4F)c(F)cc23)C(C)C1 (stereo not drawn) + CCN1C(C(=O)NC23CCC(C(=O)O)(CC2)CC3)C(c2cccc(Cl)c2F)C2(C(=O)Nc3cc(Cl)ccc32)C12CCCCC2 : T

Here is another molecule to look at.
Exercise: Hello, is viability, T/C of the following molecule strictly smaller than 90%? CNC(C)C(=O)NC1CN(S(=O)(=O)c2cccc(S(=O)(=O)N3CCC4CCC(C(=O)NC(c5ccccc5)c5ccccc5)N4C(=O)C(NC(=O)C(C)NC)C3)c2)CCC2CCC(C(=O)NC(c3ccccc3)c3ccccc3)N2C1=O (stereo not drawn) + CCN1C(C(=O)NC23CCC(C(=O)O)(CC2)CC3)C(c2cccc(Cl)c2F)C2(C(=O)Nc3cc(Cl)ccc32)C12CCCCC2
Key: F
